# protocol-description: Pharmacokinetics from plasma levels after i.p. administration to rats
# Type: in vivo, rat
# experimental-conditions: rat, ip, plasma, i.p. 80 mg/kg, mean, read-out: CL/F (converted)
# Description: The pharmacokinetics (PK) of racemic-MSPC and its two individual enantiomers were studied following i.p. (80 mg/kg) to rats and their major PK parameters were estimated. The study details were as described previously[8] and plasma and brain levels of racemic-MSPC and it individual enantiomers were monitored at: 20, 40, 60, 90, 120, 160, 180, 200, 220, 260, 320, and 360 min after dosing. Plasma and brain concentrations of each compound were quantified by an HPLC assay. […]
property-label: CL/F (mL/min/kg)
Numbers only, in mL/min/kg.

Note to self: CL/F recorded for CCC(C)CCOC(=O)Nc1ccc(S(N)(=O)=O)cc1 (racemic) [MSPC (racemate)] was 11.7
